Just for reference, patent US8476256B2 is where these values come from.

Test system: MDA-MB435 tumor cell line (Breast)
Assay: Cell profiling, MDA-MB435
Assay type: cell-based
Conditions: Homo sapiens, MDA-MB-435
recorded.endpoint: pIC50
Answers are plain numbers, as −log10 of the molar value.

Find the measured pIC50: item CCC(O)(CC)C(=O)N[C@H]1Cc2ccc3c(c2)C24C5=C(N=C(O5)[C@H](C(C)C)NC1=O)c1ncc(o1)-c1c[nH]c5cccc(c15)-c1cccc2c1NC4O3 (stereo in doubt) , target or system MDA-MB435 tumor cell line (Breast). 7.54

* * *

Tested on: BxPC3 tumor cell line (Pancreas)
Experiment: Cell profiling, BxPC3
Assay type: cell-based
Settings: Homo sapiens, BXPC-3
recorded.endpoint: IC50 (nM)
Numbers only, in nM.

// lookup IC50 for CCC(O)(CC)C(=O)N[C@H]1Cc2ccc3c(c2)C24C5=C(N=C(O5)[C@H](C(C)C)NC1=O)c1ncc(o1)-c1c[nH]c5cccc(c15)-c1cccc2c1NC4O3 (stereo in doubt) [Example 24] 213
